Documented hERG current change (%, negative = inhibition) at 10uM across a set of compounds
Biological target: human ether-à-go-go-related gene (hERG) potassium channel (human);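 also: peak tail current of the secondary pulse compared with the same well before compound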
Experiment: primary screen, population patch clamp on CHO cells stably expressing hERG; higher = less effect of the substance
Experimental: Briefly, Chinese hamster ovary (CHO) cells stably expressing the hERG channel were dislodged from tissue culture flasks and dispensed into PPC plates. […] During the recording, background leak currents were estimated by a 100 ms step to -80 mV from an initial holding potential of -70 mV and subtracted from the subsequent current measurement. The campaign was conducted in two phases using slight differences in recording protocol. […]
The whole screen tested about 310,000 compounds, of which about 14,000 (4.5%) showed an effect of 50% or more. The effect is printed as a negative number. The sample holds strong results, similar compounds and a random draw of the others, so the mix is not that of the screen.
result_type: hERG current change (%, negative = inhibition) at 10uM (%)

• CCOc1ccc(S(=O)(=O)N(CC)CC)cc1NC(=O)CSCc1c(C)noc1C = -67.2
• CCOc1ccc(S(=O)(=O)N2CCOCC2)cc1NC(=O)CSCc1c(C)noc1C = -17.3
• O=C(C1=C[C@H](c2ccccc2)C[C@H](OCc2ccc(CO)cc2)O1)N1CCN(Cc2ccccc2)CC1 = -41.2
• Cc1cccc(NC(=S)N(CCN2CCOCC2)Cc2ccccc2F)c1 = -25
• Cc1cc(OCc2nn[nH]n2)c2c3c(c(=O)oc2c1)CCC3 = 3.12
• Cc1c([C@H]2[C@@H](CC#N)C2(C)C)c2ccccc2n1C = -10.4
• CCN(c1ccc(OC)cc1)S(=O)(=O)c1ccc2c(c1)CC(C)N2C(=O)C1CC1 (centres unmarked) = 19.5
• Cc1c(C(=O)Nc2nnc(C3CC3)s2)oc2c(Cl)cccc12 = 8.02
• Cc1noc(C)c1CSCC(=O)Nc1ccc(S(C)(=O)=O)cc1 = 15.2
• O=C(C1=C[C@H](C2CC2)C[C@H](OCc2ccc(CO)cc2)O1)N1CCN(Cc2ccccc2)CC1 = -62.7
• Cn1nnnc1SCc1nc2scc(-c3ccccc3)c2c(=O)[nH]1 = -3.59
• CCOc1ccc(S(=O)(=O)N2CCCCC2)cc1NC(=O)CSCc1c(C)noc1C = -39.5
• CCC(=O)Nc1nc2ccc(NC(=O)c3cc(OC)c(OC)c(OC)c3)cc2s1 = -9.76
• CCS(=O)(=O)c1ccc(O)c(NC(=O)COc2ccc(OC)cc2)c1 = 1.82
• CCOc1ccc(NC(=O)C2CCC(C)(C(=O)O)C2(C)C)cc1 (centres unmarked) = 6.49
• CN1CCN(C(=O)C2=C[C@@H](C3CC3)C[C@@H](OCc3ccc(CO)cc3)O2)CC1 = 16.5
• Cc1nn(CCCC(=O)O)c(C)c1[N+](=O)[O-] = 12.3
• CCN(CC)S(=O)(=O)c1ccc(N(C)C)c(NC(=O)CSCc2c(C)noc2C)c1 = -60.4
• CCCc1ccc(OCC(=O)Nc2cc(S(=O)(=O)CC)ccc2O)cc1 = -58.1
• CC1(C)CC(=O)C=C(C(=O)NC2CCCc3c2cnn3-c2cc(F)cc(F)c2)O1 (centres unmarked) = -2.03

###

target: human ether-à-go-go-related gene (hERG) potassium channel (human); assay: primary screen, population patch clamp on CHO cells stably expressing hERG; higher = less effect of the substance;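 also: peak tail current of the secondary pulse compared with the same well before compound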
The campaign covered roughly 310,000 compounds. About 14,000 (4.5%) showed an effect of 50% or more. Effects have a minus sign here. The sample holds strong results, similar compounds and a random draw of the others, so the mix is not that of the screen.
// hERG current change (%, negative = inhibition) at 10uM lookup, one value per entry
result_type: hERG current change (%, negative = inhibition) at 10uM

• Cc1ccc(N2CC(C(=O)N3CCC(c4nc5ccccc5[nH]4)CC3)CC2=O)cc1C (stereo not shown) = -46.2%
• O=C(C1CC(=O)N(c2ccc(Cl)cc2)C1)N1CCC(c2nc3ccccc3[nH]2)CC1 (stereo not shown) = -71.6%
• CCCC1=C(C(=O)OCC)C(c2ccc(F)cc2)n2ncnc2N1 (stereo not shown) = -21.3%
• COc1ccc(NC(=S)N(CCN(C)C)C(C)c2ccco2)cc1Cl (stereo not shown) = -36.3%
• O=C(O)CC/C(=N\Nc1ccc([N+](=O)[O-])cc1S(=O)(=O)N1CCOCC1)c1cccs1 = -9.21%
• O=C(C1CC(=O)N(c2ccc(F)cc2)C1)N1CCC(c2nc3ccccc3[nH]2)CC1 (stereo not shown) = -63.8%
• CSc1cccc(NC(=S)N(CCN(C)C)C(C)c2ccccn2)c1 (stereo not shown) = -36.2%
• COc1cc(Cl)ccc1NC(=S)N(CCN(C)C)C(C)c1ccncc1 (stereo not shown) = -39.2%
• COCCCN(C(=S)Nc1cccc(Cl)c1)C(C)c1ccncc1 (stereo not shown) = -17.3%
• COc1ccc(NC(=S)N(CCN(C)C)C(C)c2ccncc2)cc1Cl (stereo not shown) = -59.9%

###

target: human ether-à-go-go-related gene (hERG) potassium channel (human, UniProt Q12809); test: primary screen, population patch clamp on CHO cells stably expressing hERG; higher = less effect of the substance;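 also: peak tail current of the secondary pulse compared with the same well before compound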
Sequence (Q12809 whole entry, looked up): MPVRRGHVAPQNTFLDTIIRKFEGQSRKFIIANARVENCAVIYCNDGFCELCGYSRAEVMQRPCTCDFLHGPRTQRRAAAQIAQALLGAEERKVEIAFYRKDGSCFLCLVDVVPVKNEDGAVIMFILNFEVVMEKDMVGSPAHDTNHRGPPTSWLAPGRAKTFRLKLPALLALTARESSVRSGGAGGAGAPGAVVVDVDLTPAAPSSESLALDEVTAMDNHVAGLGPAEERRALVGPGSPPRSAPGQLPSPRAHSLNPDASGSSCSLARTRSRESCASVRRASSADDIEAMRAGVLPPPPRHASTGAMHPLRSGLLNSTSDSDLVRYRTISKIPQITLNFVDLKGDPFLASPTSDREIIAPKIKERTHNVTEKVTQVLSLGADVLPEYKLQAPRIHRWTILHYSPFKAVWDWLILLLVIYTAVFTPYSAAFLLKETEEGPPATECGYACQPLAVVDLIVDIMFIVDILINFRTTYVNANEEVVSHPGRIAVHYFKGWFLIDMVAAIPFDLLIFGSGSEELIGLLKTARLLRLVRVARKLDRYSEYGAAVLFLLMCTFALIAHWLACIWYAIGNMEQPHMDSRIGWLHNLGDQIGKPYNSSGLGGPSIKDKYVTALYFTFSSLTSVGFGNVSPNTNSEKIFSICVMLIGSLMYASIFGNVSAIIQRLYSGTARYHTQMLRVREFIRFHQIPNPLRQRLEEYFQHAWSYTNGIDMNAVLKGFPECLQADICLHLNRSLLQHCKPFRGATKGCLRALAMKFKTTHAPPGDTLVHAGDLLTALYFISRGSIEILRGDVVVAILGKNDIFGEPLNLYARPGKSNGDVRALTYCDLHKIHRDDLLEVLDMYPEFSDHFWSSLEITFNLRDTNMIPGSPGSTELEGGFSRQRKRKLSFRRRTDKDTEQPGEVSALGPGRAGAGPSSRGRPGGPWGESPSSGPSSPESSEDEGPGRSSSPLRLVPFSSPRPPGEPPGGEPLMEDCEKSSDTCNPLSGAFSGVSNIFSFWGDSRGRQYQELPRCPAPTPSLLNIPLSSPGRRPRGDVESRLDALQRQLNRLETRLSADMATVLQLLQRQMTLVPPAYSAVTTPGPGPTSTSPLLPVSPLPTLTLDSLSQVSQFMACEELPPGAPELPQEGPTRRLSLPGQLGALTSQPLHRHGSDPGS
Screen size: about 310,000 compounds; about 14,000 (4.5%) showed an effect of 50% or more. Effects have a minus sign here. For the sample, strong results were picked, then their nearest neighbours and some compounds at random.
result_type: hERG current change (%, negative = inhibition) at 10uM (%)

* CCOc1ccc(NC(=O)c2ccccc2CO)cc1 | 16.2
* COCCN(CC(=O)NC1CCCCC1)C(=O)CCCC(=O)Nc1ccccn1 | 10
* CC(C)c1ccc(NC(=S)N(C)CCc2ccccn2)cc1 | -8.91
* O=C(CCS(=O)CCC(=O)NCc1ccccc1)NCc1ccccc1 | 17.7
* CN(NC1OC(=O)c2ccccc21)c1ccc(C(F)(F)F)cc1[N+](=O)[O-] (centres unmarked) | 34.2
* CC(O)c1nc2ccccc2n1CC(=O)Nc1ccc(F)cc1Cl (centres unmarked) | 14.2
* CN(C)C(=O)NC(Nc1cccc([N+](=O)[O-])c1)C(Cl)(Cl)Cl (centres unmarked) | -27.1
* CCN(Cc1cnn(C)c1)C(=O)c1ccc(OC2CCN(S(=O)(=O)N(C)C)CC2)cc1 | 19.1
* Cc1ccccc1S(=O)(=O)Cc1ccc(C(=O)N2CCN(c3ccccc3F)CC2)o1 | -40.7
* Cc1cc(NC(=O)COC(=O)CC2CCCC2)c([N+](=O)[O-])cc1C | 9.34
* Cc1ccc(OCC(=O)Nc2nnc(S(=O)(=O)N3CCC(C)CC3)s2)cc1 | 19.2
* COc1ccc(N2CCN(C(=O)c3ccc(CS(=O)(=O)c4ccccc4C)o3)CC2)cc1 | -21.5
* O=C(CCC(=O)N1CCN(Cc2ccc(F)cc2)CC1)Nc1nnc(C2CCCCC2)s1 | 6.92
* CCOC(=O)c1ccc(NC(=O)c2nn(CC)cc2Br)cc1 | 5.3
* Cc1cc2cc3c(cc2nc1SCC(=O)N1CCOCC1)OCO3 | 2.58
* O=[N+]([O-])c1ccc(NCCO)c2ncccc12 | 2.11
* CCc1ccc(CN(C)CCc2ccccn2)cc1 | -62.6
* CCCc1ccc(C2=Nn3c(nnc3C(C)C)SC2)cc1 | -6.25
* CN(C)CCNc1oc(-c2cccc(Cl)c2)nc1C#N | -36.2
* Cc1cc(C)c(S(=O)(=O)NCC2CCC(C(=O)NCc3ccc4c(c3)OCO4)CC2)c(C)c1 (centres unmarked) | -1.15
* CN(CCc1ccccn1)Cc1ccc(Cl)c(Cl)c1 | -36.3
* Cc1c(/C(O)=C2/C(=O)C(=O)N(CCN3CCOCC3)C2c2cccs2)cnn1-c1ccccc1 (centres unmarked) | 13.6
* C[C@]12CC[C@H](O)C[C@H]1CC[C@@H]1C2CC[C@]2(C)[C@@H](C3=CC(=O)OC3)[C@@H](O)C[C@]12O (some centres unmarked) | 21.1
* Cc1ccc(C2=C/C(=C\c3cccnc3)C(=O)O2)cc1 | 30.8
* c1ccc2c(c1)NC1(CCCC1)n1c-2nc2ccccc21 | -9.46
* CN1C(=O)c2c(sc3c2CC(C)(C)SC3)N2CCN=C12.Cl | -72.6
* CN(CCc1ccccn1)C(=O)Nc1ccc(Cl)cc1 | 6.31
* c1ccc(-c2nnc3sc(Cc4cccs4)nn23)cc1 | -30.8
* O=C(NC(=S)NNC(=O)[C@H]1C[C@@H]1c1ccccc1)c1ccc(F)cc1 | 3.86
* COc1ccc(C(=O)NC(=S)NC(C)c2ccccc2)cc1 (centres unmarked) | 21.8
* Cc1cccc(CN(C)CCc2ccccn2)c1 | -15.3
* COc1cccc(-n2c(-c3ccco3)nc3nc4ccccc4nc32)c1 | 18.4
* Cc1nn(CC(=O)N2CCN(C34CC5CC(CC(C5)C3)C4)CC2)c(C)c1[N+](=O)[O-] | -1.7
* CCOc1ccc(C(=O)N2CCCC2)cc1OC | -14.7
* CCCN(CC1CC1)C(=O)CCc1nnc(C(OC)c2ccccc2)o1 (centres unmarked) | -4.58
* Clc1ccc(-c2nnc3sc(Cc4cccs4)nn23)c(Cl)c1 | -55.7
* O=C(N/N=C/C=C\c1ccco1)c1cccnc1 | 8.4
* O=C(c1ccco1)N1N=C(c2ccco2)CC1c1ccc(Cl)cc1Cl (centres unmarked) | 11.9
* O=C(CCCc1nc(-c2ccc(Cl)cc2)no1)NC1CCCC1 | -1.19
* S=C(Nc1ccccc1)Nc1ccc(OCc2ccccc2)cc1 | -0.702
* Cc1ccccc1S(=O)(=O)Cc1ccc(C(=O)N2CCN(c3ccc(F)cc3)CC2)o1 | -64.3
